- tested target: Butyrylcholinesterase (Homo sapiens)
- Sequence (P06276 29-602): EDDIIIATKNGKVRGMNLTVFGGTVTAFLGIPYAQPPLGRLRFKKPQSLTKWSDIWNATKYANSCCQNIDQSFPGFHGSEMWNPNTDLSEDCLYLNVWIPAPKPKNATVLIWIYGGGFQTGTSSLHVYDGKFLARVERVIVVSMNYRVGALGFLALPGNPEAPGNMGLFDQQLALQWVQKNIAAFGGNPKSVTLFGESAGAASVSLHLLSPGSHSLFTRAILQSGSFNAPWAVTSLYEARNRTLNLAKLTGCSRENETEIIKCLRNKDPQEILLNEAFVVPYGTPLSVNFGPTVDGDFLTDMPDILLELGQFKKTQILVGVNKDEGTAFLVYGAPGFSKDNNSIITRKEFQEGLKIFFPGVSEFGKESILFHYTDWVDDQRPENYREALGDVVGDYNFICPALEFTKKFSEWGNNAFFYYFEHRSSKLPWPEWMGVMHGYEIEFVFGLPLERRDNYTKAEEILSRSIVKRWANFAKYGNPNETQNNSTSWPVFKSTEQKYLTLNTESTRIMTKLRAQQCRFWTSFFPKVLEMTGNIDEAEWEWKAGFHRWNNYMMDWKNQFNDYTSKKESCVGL
pIC50: −log10 of the molar value.
quantity: pIC50

In [3]: df
Out[3]:
                                    compound  quantity  result_operator  endpoint_value
 0  COc1cc(Br)c2c3c1OC1C[C@@H](O)C=CC31CCN(Cc1ccccc1)C2 (mixture of isomers)     pIC50                =            6.62
 1  COc1ccc2c3c1OC1C[C@@H](O)C=CC31CCN(C(=O)Nc1ccccc1)C2 (mixture of isomers)     pIC50                <            4.00
 2  COc1ccc2c3c1O[C@H]1C[C@@H](O)C=C[C@@]31CCN(CCC(=O)O)C2     pIC50                =            4.40
 3  C=C(C)C[N+]1(C)CCC23C=C[C@H](O)CC2Oc2c(OC)cc(C)c(c23)C1 (mixture of isomers)     pIC50                =            5.62
 4  COc1ccc2c3c1O[C@H]1C[C@@H](O)C=C[C@@]31CCN(c1ccccc1)C2     pIC50                =            6.62
 5  CNC(=S)N1CC[C@@]23C=C[C@H](O)C[C@@H]2Oc2c(OC)ccc(c23)C1     pIC50                =            4.20
 6  COc1cc2c(cc1OC)C(=O)C(CCCCCN1CC[C@@]34C=C[C@H](O)C[C@@H]3Oc3c(OC)ccc(c34)C1)C2 (some centres unmarked)     pIC50                =            6.62
 7  COc1ccc2c3c1OC1C[C@@H](O)C=CC31CCN(c1nccc(Cl)n1)C2 (mixture of isomers)     pIC50                <            4.00
 8  COc1ccc2c3c1O[C@H]1C[C@@H](O)C=C[C@@]31CCN(/C(=N/C#N)SC)C2     pIC50                =            4.52
 9  COc1cc(Br)c2c3c1O[C@@H]1C[C@H](O)C=C[C@]31CCN(CCCN1CCN(C)CC1)C2     pIC50                =            4.51
10  C=CCN1CCC23C=C[C@H](O)CC2Oc2c(OC)ccc(c23)C1 (mixture of isomers)     pIC50                =            5.51
11  COc1cc(Br)c2c3c1OC1C[C@@H](O)C=CC31CCN(CCC#N)C2 (mixture of isomers)     pIC50                =            4.37
12  COc1ccc2c3c1OC1C[C@@H](O)C=CC31CCN(C(=O)NC1CCCCC1)C2 (mixture of isomers)     pIC50                <            4.00
13  COc1cc(C)c2c3c1OC1C[C@@H](O)C=CC31CCN(CCCN1CCCCC1)C2 (mixture of isomers)     pIC50                =            6.22
14  C#CC[N+]1(C)CCC23C=C[C@H](O)CC2Oc2c(OC)cc(C)c(c23)C1 (mixture of isomers)     pIC50                =            5.60
15  COc1ccc2c3c1OC1C[C@@H](O)C=CC31CCN(CCCO)C2 (mixture of isomers)     pIC50                =            4.68
16  CCCCNC(=O)O[C@H]1C=C[C@@]23CCN(C)Cc4ccc(OC)c(c42)O[C@H]3C1     pIC50                =            5.32
17  COc1cc(Br)c2c3c1OC1C[C@@H](O)C=CC31CCN(C(=O)NC(C)C)C2 (mixture of isomers)     pIC50                =            4.60
18  COc1ccc2c3c1O[C@H]1C[C@@H](O)C=C[C@@]31CCN(C)C2C#N (some centres unmarked)     pIC50                <            4.00
19  COc1ccc2c3c1O[C@H]1C[C@@H](O)C=C[C@@]31CCN(CC1CC1)C2     pIC50                =            5.92
20  COc1ccc2c3c1OC1C[C@@H](O)C=CC31CCN(CCC#N)C2 (mixture of isomers)     pIC50                <            4.00
21  C=CC[N+]1(C)CCC23C=C[C@@H](O)CC2Oc2c(OC)cc(C)c(c23)C1 (mixture of isomers)     pIC50                =            4.28
22  COc1ccc2c3c1O[C@H]1C[C@@H](O)C=C[C@@]31CCN(C(=O)OC(C)(C)C)C2     pIC50                <            4.00
23  CCOC(=O)CCN1CCC23C=C[C@H](O)CC2Oc2c(OC)cc(Br)c(c23)C1 (mixture of isomers)     pIC50                =            4.72
24  CC(C)NC(=O)N1CC[C@@]23C=C[C@H](O)C[C@@H]2Oc2c(O)ccc(c23)C1     pIC50                =            4.22
25  COc1ccc2c3c1OC1C[C@@H](O)C=CC31CCN(CCC(=O)NC(C)(C)C)C2 (mixture of isomers)     pIC50                =            4.59
26  COc1ccc2c3c1OC1C[C@@H](O)C=CC31CCN(Cc1ccccc1)C2 (mixture of isomers)     pIC50                =            6.19
27  COc1ccc2c3c1OC1C[C@@H](O)C=CC31CCN(C(=O)CCl)C2 (mixture of isomers)     pIC50                =            4.70
28  COc1ccc2c3c1OC1C[C@@H](O)C=CC31CCN(CCC(=O)NC(C)C)C2 (mixture of isomers)     pIC50                =            4.44
29  C=C(C)C[N+]1(C)CCC23C=C[C@@H](O)CC2Oc2c(OC)cc(C)c(c23)C1 (mixture of isomers)     pIC50                =            4.02
30  COC(=O)/C=C(\C(=O)OC)N1CCC23C=C[C@H](O)CC2Oc2c(OC)ccc(c23)C1 (mixture of isomers)     pIC50                =            4.10
31  CCOC(=O)C(=O)N1CCC23C=C[C@H](O)CC2Oc2c(OC)cc(Br)c(c23)C1 (mixture of isomers)     pIC50                =            4.96
